# Assay procedure: Apparent permeability of the compound across phospholipid vesicle-based barrier
# Assay type: physicochemical
# Reported conditions: not told
Reported Papp values for a set of molecules
Measurement label: Papp

{"Compound structure": "Fc1ccc(NC2=NCCC3(CCCCC3)S2)cc1Cl", "Measurement": "7.36 ×10⁻⁶ cm/s"}
{"Compound structure": "CCc1ccc(NC2=NCCC3(CCCCC3)S2)cc1", "Measurement": "41 ×10⁻⁶ cm/s"}
{"Compound structure": "Cc1cc(C)c(NC2=NCCC3(CCCCC3)S2)c(C)c1", "Measurement": "11.3 ×10⁻⁶ cm/s"}
{"Compound structure": "Cc1ccc(NC2=NCCC3(CCCCC3)S2)cc1", "Measurement": "5.67 ×10⁻⁶ cm/s"}
{"Compound structure": "COc1ccc(NC2=NCCC3(CCCCC3)S2)cc1", "Measurement": "1.11 ×10⁻⁶ cm/s"}
{"Compound structure": "Nc1ccc(NC2=NCCC3(CCCCC3)S2)cc1", "Measurement": "2.04 ×10⁻⁶ cm/s"}
{"Compound structure": "CC(C)c1ccc(NC2=NCCC3(CCCCC3)S2)cc1", "Measurement": "15.7 ×10⁻⁶ cm/s"}
{"Compound structure": "c1ccc(NC2=NCCC3(CCCCC3)S2)cc1", "Measurement": "1.81 ×10⁻⁶ cm/s"}
{"Compound structure": "CC(=O)c1cccc(NC2=NCCC3(CCCCC3)S2)c1", "Measurement": "74.7 ×10⁻⁶ cm/s"}
{"Compound structure": "Clc1ccc(NC2=NCCC3(CCCCC3)S2)cc1Cl", "Measurement": "3.1 ×10⁻⁶ cm/s"}
{"Compound structure": "O=C(NC1=NCCC2(CCCCC2)S1)c1ccccc1", "Measurement": "3.18 ×10⁻⁶ cm/s"}
{"Compound structure": "Cc1ccc(NC2=NCCC3(CCCCC3)S2)cc1Cl", "Measurement": "23.9 ×10⁻⁶ cm/s"}
{"Compound structure": "Brc1ccc(NC2=NCCC3(CCCCC3)S2)cc1", "Measurement": "90.3 ×10⁻⁶ cm/s"}
{"Compound structure": "Oc1ccc(NC2=NCCC3(CCCCC3)S2)cc1", "Measurement": "1.72 ×10⁻⁶ cm/s"}
{"Compound structure": "CC(=O)c1ccc(NC2=NCCC3(CCCCC3)S2)cc1", "Measurement": "2.55 ×10⁻⁶ cm/s"}
{"Compound structure": "CCNC1=NCCC2(CCCCC2)S1", "Measurement": "8.78 ×10⁻⁶ cm/s"}
{"Compound structure": "Clc1ccc(NC2=NCCC3(CCCCC3)S2)cc1", "Measurement": "27.8 ×10⁻⁶ cm/s"}
{"Compound structure": "NC1=NCCC2(CCCCC2)S1", "Measurement": "7.33 ×10⁻⁶ cm/s"}
{"Compound structure": "FC(F)(F)c1ccc(NC2=NCCC3(CCCCC3)S2)cc1", "Measurement": "3.06 ×10⁻⁶ cm/s"}
{"Compound structure": "CCc1cccc(CC)c1NC1=NCCC2(CCCCC2)S1", "Measurement": "21.6 ×10⁻⁶ cm/s"}
{"Compound structure": "CNC1=NCCC2(CCCCC2)S1", "Measurement": "2.7 ×10⁻⁶ cm/s"}
{"Compound structure": "Cc1cccc(C(C)C)c1NC1=NCCC2(CCCCC2)S1", "Measurement": "9.04 ×10⁻⁶ cm/s"}
